The origin of these recorded values is ChEMBL document CHEMBL3352242.

Tested on: Rattus norvegicus
Assay: Dose normalized Cmax inSprague-Dawley rat at 6 mg/kg, po
Type: ADME, organism-based, Sprague-Dawley
Set-up: dose 6 mg/kg, route oral
Conditions: in vivo
outcome-measure: Cmax/dose (nM/mg/kg)
Supply the numeric figure in nM/mg/kg, leaving out any unit text.

## Task API: value(readout=Cmax/dose, system=Rattus norvegicus) for record CCOC[C@@H](CC(C)C)NC(=O)[C@@H]1CNC[C@H](C(=O)N(c2ccc(C(C)C)cn2)C2CC2)C1.O=C(O)/C=C/C(=O)O
## Result 63

## Task API: value(readout=Cmax/dose, system=Rattus norvegicus) for record CCOC[C@@H](CC(C)C)NC(=O)[C@@H]1CNC[C@H](C(=O)N(c2ccc(C(C)C)cn2)C2CC2)[C@@H]1O.O=C(O)CCC(=O)O
## Result 136

## Task API: value(readout=Cmax/dose, system=Rattus norvegicus) for record CCOC[C@@H](CC(C)C)NC(=O)[C@@H]1CNC[C@H](C(=O)N(c2cc(OCCCOC)c(C(C)C)cn2)C2CC2)C1.Cl
## Result 18

## Task API: value(readout=Cmax/dose, system=Rattus norvegicus) for record CCOC[C@@H](CC(C)C)NC(=O)[C@@H]1CNC[C@H](C(=O)N(c2cc(OC)c(C(C)C)cn2)C2CC2)[C@@H]1O
## Result 74
